Source: paper PMC9482650

molecular target: DLG4_2, P78352; experiment: holdup assay; design: key: below the threshold = too weak to quantify, mostly under pKd 3.1 to 4; conditions: plain residues with an end cap or a label only (N-terminal biotin on a linker: ado-ado)
Sequence (P78352 155-259): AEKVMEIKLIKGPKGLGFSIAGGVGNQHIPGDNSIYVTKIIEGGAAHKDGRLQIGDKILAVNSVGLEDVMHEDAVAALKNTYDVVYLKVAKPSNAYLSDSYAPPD
propertyName: pKd

Reference set (5 entries):
NLSIEKETKL [ASNSD1, Q9NWL6]	3.54
TASPAKETSF [SLC2A7, Q6PXP3]	4.11
YRLAQESGLV [ABCC6, O95255]	3.55
RRLPGKETMA [GRIK2, Q13002]	below the threshold
TLPRKRMSSI [GPRC6A, Q5T6X5]	below the threshold

Give the reported pKd for this binder. PLSPEQPTKL [TRIM50, Q86XT4] below the threshold

Please list pKd recorded for the binder VKPQVSESKL [ACOT8, O14734] below the threshold

Specify measured pKd for PKRSFIESNV [TANC1, Q9C0D5] . 5.04
